# Assay target: GLP-1 receptor (Homo sapiens)
# Construct: expressed in transfected cells; host or cells: HEK293
# Method description: cAMP induction, firefly luciferase reporter assay in HEK293 cells co-transfected with GLP-1 receptor
# Assay type: cell-based
# Run parameters: Table 3, Example 8; read-out: GLP-1R EC50
pEC50: −log10 of the molar value.
Reported endpoint: pEC50

Some substances with recorded pEC50:
Example 8 peptide: Tyr1, AIB2, Glu16/Lys20 lactam, Leu-Ala-Gly 27-29, GPSSGAPPPS 30-39, or a peptide lacking a lactam [mt-217]
9.65
Example 8 peptide: Tyr1, AIB2, Glu16/Lys20 lactam, Leu-Ala-Gly 27-29, GPSSGAPPPS 30-39, or a peptide lacking a lactam [mt-220]
9.74
Example 8 peptide: Tyr1, AIB2, Glu16/Lys20 lactam, Leu-Ala-Gly 27-29, GPSSGAPPPS 30-39, or a peptide lacking a lactam [mt-228]
9.84
Example 8 peptide: Tyr1, AIB2, Glu16/Lys20 lactam, Leu-Ala-Gly 27-29, GPSSGAPPPS 30-39, or a peptide lacking a lactam [mt-226]
10.01

A. Example 8 peptide: Tyr1, AIB2, Glu16/Lys20 lactam, Leu-Ala-Gly 27-29, GPSSGAPPPS 30-39, or a peptide lacking a lactam [mt-219]
B. Example 8 peptide: Tyr1, AIB2, Glu16/Lys20 lactam, Leu-Ala-Gly 27-29, GPSSGAPPPS 30-39, or a peptide lacking a lactam [mt-218]
// compare measured pEC50, left A , right B , return larger Selection: enter the item's label.
A
(A: 9.82, B: 9.47)

====

# Assay target: GLP-1 receptor (Homo sapiens, UniProt P43220)
# Construct: expressed in transfected cells; host or cells: HEK293
# Sequence (P43220 24-463): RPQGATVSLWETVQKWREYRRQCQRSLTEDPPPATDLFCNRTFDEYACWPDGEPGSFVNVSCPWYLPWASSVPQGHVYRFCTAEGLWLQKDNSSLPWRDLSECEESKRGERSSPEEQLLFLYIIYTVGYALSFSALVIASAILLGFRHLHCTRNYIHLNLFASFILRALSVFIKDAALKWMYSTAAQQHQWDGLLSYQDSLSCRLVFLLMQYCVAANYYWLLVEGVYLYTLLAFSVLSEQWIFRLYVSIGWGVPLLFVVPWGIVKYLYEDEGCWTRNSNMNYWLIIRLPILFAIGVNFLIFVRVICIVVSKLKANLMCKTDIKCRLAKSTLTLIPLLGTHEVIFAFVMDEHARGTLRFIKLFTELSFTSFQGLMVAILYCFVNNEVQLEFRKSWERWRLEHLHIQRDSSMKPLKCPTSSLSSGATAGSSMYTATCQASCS
# Method description: cAMP induction, firefly luciferase reporter assay in HEK293 cells co-transfected with GLP-1 receptor
# Type: cell-based
*1 amine or outer side, *2 acyl side, *3 side chain or, on linkers, in order; H or OH if unused. Where no end group is shown, it is not given here. Side-chain parts run from the residue outwards. [ ]: non-standard residue; d: D form. The star is where a group is joined. Phe(4-NH2) = Nc1ccc(C[C@H](N)C(=O)O)cc1; γGlu = O=C(O)[C@H](CCC(=O)[*:2])N[*:1]; X6 = CCCCCCCCCCCCCCCCC(CC(=O)*)C(=O)O; Palmitoyl = CCCCCCCCCCCCCCCC(=O)*; Aib = CC(C)(N)C(=O)O
Each item that follows carries a reported pEC50.
Conceptually, pEC50 converts a concentration in mol/L into minus its log10.

H[Aib]QGTFTSDYSKYLDERAAQDFVQWLLDGGPSSGAPPPS[Phe(4-NH2)](X6)G-NH2 [SEQ ID NO: 146]
11.15

As a next step, examine the substance that follows.
Reported pEC50 for H[Aib]QGTFTSDYSKYLDERAAQDFVQWLLDGGPSSGAPPPS[Phe(4-NH2)]([γGlu-γGlu-Palmitoyl])G-NH2 [SEQ ID NO: 145] : what is it?
11.70

====

# Assay target: GLP-1 receptor (Homo sapiens, UniProt P43220)
# Construct: expressed in transfected cells; host or cells: HEK293
# Method description: cAMP induction, firefly luciferase reporter assay in HEK293 cells co-transfected with GLP-1 receptor
# Type: cell-based
# Run parameters: Table 3; relative to the activity of the native hormone
Bridges are numbered along the chain shown (N, C = ends). Where no end group is shown, it is not given here. Side-chain parts run from the residue outwards. [ ]: non-standard residue; d: D form. Aib = CC(C)(N)C(=O)O
Reported endpoint: GLP-1R relative activity (%)

Some substances with recorded GLP-1R relative activity:
Example 8 peptide: Tyr1, AIB2, Glu16/Lys20 lactam, Leu-Ala-Gly 27-29, GPSSGAPPPS 30-39, or a peptide lacking a lactam [mt-226]
29.90
Example 8 peptide: Tyr1, AIB2, Glu16/Lys20 lactam, Leu-Ala-Gly 27-29, GPSSGAPPPS 30-39, or a peptide lacking a lactam [mt-227] (Y[Aib]QGTFTSDYSIYLDEQAAKEFVNWLLAGGPSSGAPPPSK([Arg-Cys(PEG 40 kDa)-Ac]); lactam 16-20; not fully specified (C-terminus))
36.25

a. Example 8 peptide: Tyr1, AIB2, Glu16/Lys20 lactam, Leu-Ala-Gly 27-29, GPSSGAPPPS 30-39, or a peptide lacking a lactam [mt-217]
b. Example 8 peptide: Tyr1, AIB2, Glu16/Lys20 lactam, Leu-Ala-Gly 27-29, GPSSGAPPPS 30-39, or a peptide lacking a lactam [mt-218]
// compare measured GLP-1R relative activity, left a , right b , return larger Selection: enter the item's label.
a

====

# Assay target: glucagon receptor (Homo sapiens, UniProt P47871)
# Construct: expressed in transfected cells; host or cells: HEK293
# Sequence (P47871 26-477): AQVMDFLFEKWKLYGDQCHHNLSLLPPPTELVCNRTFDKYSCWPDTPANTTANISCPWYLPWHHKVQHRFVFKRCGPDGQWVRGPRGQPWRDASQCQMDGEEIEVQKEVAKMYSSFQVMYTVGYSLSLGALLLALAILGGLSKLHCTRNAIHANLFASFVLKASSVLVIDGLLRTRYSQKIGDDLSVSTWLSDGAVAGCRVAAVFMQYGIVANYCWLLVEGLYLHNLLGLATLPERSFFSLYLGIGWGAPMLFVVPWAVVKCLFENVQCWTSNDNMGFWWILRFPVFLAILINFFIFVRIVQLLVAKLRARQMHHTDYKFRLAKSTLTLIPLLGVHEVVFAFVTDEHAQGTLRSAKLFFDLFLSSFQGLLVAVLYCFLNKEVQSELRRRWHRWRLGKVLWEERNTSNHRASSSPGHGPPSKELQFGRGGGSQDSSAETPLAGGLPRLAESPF
# Method description: cAMP induction, firefly luciferase reporter assay in HEK293 cells co-transfected with glucagon receptor
# Format: cell-based
# Run parameters: Table 3; relative to the activity of the native hormone
# Description: This example describes an exemplary method of testing the biological activity of the peptides of the present disclosures, which method involves assaying cAMP synthesis.
Bridges are numbered along the chain shown (N, C = ends). Where no end group is shown, it is not given here. Side-chain parts run from the residue outwards. [ ]: non-standard residue; d: D form. Aib = CC(C)(N)C(=O)O
Each item that follows carries a reported GR relative activity.
Write the answer as a number in %, unit excluded.

Example 8 peptide: Tyr1, AIB2, Glu16/Lys20 lactam, Leu-Ala-Gly 27-29, GPSSGAPPPS 30-39, or a peptide lacking a lactam [mt-227] (Y[Aib]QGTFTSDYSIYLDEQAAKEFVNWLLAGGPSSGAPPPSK([Arg-Cys(PEG 40 kDa)-Ac]); lactam 16-20; not fully specified (C-terminus))
1.27

As a next step, examine the substance that follows.
Reported GR relative activity for Example 8 peptide: Tyr1, AIB2, Glu16/Lys20 lactam, Leu-Ala-Gly 27-29, GPSSGAPPPS 30-39, or a peptide lacking a lactam [mt-228] : what is it?
1.01

====

# Assay target: GIP receptor (Homo sapiens, UniProt P48546)
# Sequence (P48546 22-466): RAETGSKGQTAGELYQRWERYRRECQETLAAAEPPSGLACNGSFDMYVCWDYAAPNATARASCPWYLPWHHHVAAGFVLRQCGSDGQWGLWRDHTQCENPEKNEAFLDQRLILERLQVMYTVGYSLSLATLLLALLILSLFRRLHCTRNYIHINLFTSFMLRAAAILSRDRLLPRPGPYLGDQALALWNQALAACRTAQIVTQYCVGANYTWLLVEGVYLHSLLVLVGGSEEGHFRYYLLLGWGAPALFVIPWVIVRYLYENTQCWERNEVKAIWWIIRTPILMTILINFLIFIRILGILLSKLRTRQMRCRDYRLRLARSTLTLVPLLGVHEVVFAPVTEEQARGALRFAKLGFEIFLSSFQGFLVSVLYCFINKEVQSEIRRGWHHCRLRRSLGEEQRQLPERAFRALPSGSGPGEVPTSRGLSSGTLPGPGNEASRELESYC
# Method description: cAMP induction, firefly luciferase reporter assay in HEK293 cells co-transfected with GIP receptor
# Type: cell-based
# Run parameters: GIP-1 Receptor EC50, Table 10, Example 16
Where no end group is shown, it is not given here. [ ]: non-standard residue; d: D form. The star is where a group is joined. X3 = CCCCCCCCCCCCCCC(CC(=O)*)C(=O)O; Aib = CC(C)(N)C(=O)O
Reported endpoint: EC50 (nM)
Write the answer as a number in nM, unit excluded.

Reported EC50 for H[Aib]QGTFTSDYSKYLDERAAQDFVQWLLDGGPSSGAPPPSK(X3)G-NH2 [SEQ ID NO: 176] : what is it?
0.101

====

# Assay target: GLP-1 receptor (Homo sapiens)
# Construct: expressed in transfected cells; host or cells: HEK293
# Method description: cAMP induction, firefly luciferase reporter assay in HEK293 cells co-transfected with GLP-1 receptor
# Format: cell-based
# Run parameters: GLP-1 Receptor EC50, Table 11, Example 18
*1 amine or outer side, *2 acyl side, *3 side chain or, on linkers, in order; H or OH if unused. Where no end group is shown, it is not given here. Side-chain parts run from the residue outwards. [ ]: non-standard residue; d: D form. The star is where a group is joined. PEG8 = NCCOCCOCCOCCOCCOCCOCCOCCOCCC(=O)O; γGlu = O=C(O)[C@H](CCC(=O)[*:2])N[*:1]; X6 = CCCCCCCCCCCCCCCCC(CC(=O)*)C(=O)O; Palmitoyl = CCCCCCCCCCCCCCCC(=O)*; PEG4 = NCCOCCOCCOCCOCCC(=O)O; Aib = CC(C)(N)C(=O)O
Each item that follows carries a reported EC50.
Write the answer as a number in pM, unit excluded.

Some substances with recorded EC50:
H[Aib]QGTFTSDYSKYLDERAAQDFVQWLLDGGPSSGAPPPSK([PEG8-γGlu-Palmitoyl])G-NH2 [SEQ ID NO: 159]
5
H[Aib]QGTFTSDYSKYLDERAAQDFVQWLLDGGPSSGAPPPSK(X6)G-NH2 [SEQ ID NO: 156]
3

As a next step, examine the substance that follows.
Reported EC50 for H-H[Aib]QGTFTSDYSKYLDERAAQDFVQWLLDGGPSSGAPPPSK([PEG4-γGlu-Palmitoyl])G-NH2 [SEQ ID NO: 158] : what is it?
3
